Assay: LMP1-induced NF-kB luciferase signal inhibition – cell-based, EBV LMP1, dry powder, set 2, dose response (AID 624361)
Conditions: LMP1-induced NF-kappaB luciferase reporter cells, luminescence; at 35 µM (top of the series)
Inconclusive results are not listed. Calls of active or inactive are those of the source. How the calls were made is not given here.
endpoint: activity change, negative = inhibition

Q: Give activity change, negative = inhibition for the following molecule: O=C(Cc1ccccn1)NCC[C@@H]1CC[C@H](NC(=O)Nc2ccc(Cl)cc2)[C@H](CO)O1
Ans: -5.88% (inactive)

Q: Please report activity change, negative = inhibition for the following molecule: C[C@H](CO)N1C[C@H](C)[C@H](CN(C)Cc2ccc(Oc3ccccc3)cc2)Oc2ccc(NC(=O)CCCN(C)C)cc2C1=O
Ans: 16.2% (inactive)

Q: Report measured activity change, negative = inhibition; entry is C[C@H](NC(=O)C[C@H]1C=C[C@@H](NC(=O)Cc2ccccn2)[C@H](CO)O1)c1ccccc1
Ans: -1.8% (inactive)

Q: Note activity change, negative = inhibition for the molecule shown: CC(C)(C)[S@@](=O)N1Cc2cc(C(=O)NCCc3ccncc3)nc(-c3cccc(-c4cccnc4)c3)c2[C@H]1CCO
Ans: -15% (inactive)

Q: Item COC(=O)C[C@@H]1C[C@@H]2c3cc(NC(=O)CN(C)C)ccc3O[C@@H]2[C@@H](CO)O1 : provide activity change, negative = inhibition
Ans: -0.64% (inactive)

New cases:
Q: Answer with the recorded activity change, negative = inhibition for the molecule listed here: C[C@@H](NC(=O)C[C@H]1C[C@@H]2c3cc(NC(=O)c4cccnc4)ccc3O[C@@H]2[C@@H](CO)O1)c1ccccc1
Ans: -0.38% (inactive)

Q: Output activity change, negative = inhibition of CO[C@@H]1CN(C)C(=O)c2ccc(NC(C)=O)cc2OC[C@@H](C)N(Cc2ccccc2F)C[C@H]1C
Ans: 0.476% (inactive)
